Molecular target: T1, CBX7 chromodomain (CBX7 ChD), N-terminal His6-tagged recombinant protein (UniProt O95931 8-62, limits assumed)
T1 construct: domain: chromodomain; not shown: N-terminal His6 tag
T1 sequence (looked up): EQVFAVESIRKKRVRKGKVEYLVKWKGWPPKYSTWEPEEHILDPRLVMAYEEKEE
Assay: direct fluorescence polarization, FAM-labelled ligand at 100 nM, ChD titrated
Square brackets hold non-standard residues; d marks the D form. * marks the point of attachment. triazole = triazole formed by click reaction joining the C-terminal propargylamide to 5/6-carboxyfluorescein; Isoxazole3carbonyl(5-Me) = Cc1cc(C(=O)*)no1; Tyr(3-Cl) = N[C@@H](Cc1ccc(O)c(Cl)c1)C(=O)O; Lys(Et2) = CCN(CC)CCCC[C@H](N)C(=O)O; NH(propargyl) = C#CCN*
endpoint_name: pKd
Scale note: pKd = -log10(concentration in M).

Lab note: measured pKd of {Isoxazole3carbonyl(5-Me)}-[Tyr(3-Cl)]VI[Lys(Et2)]S-{NH(propargyl)-triazole-5/6‑FAM} (also called 97L fluorescein derivative; KED97L (as measured)) [KED97L-FL] was 5.33
